Tested on: CL 4931, CL 5053, CL 5242 and CL 4877
Assay type: cell-based, E. faecium, E. faecalis
Conditions: mean of CL4931, CL5053, CL5242, CL4877; unit not given
assay.readout: Mean
Give your answer as a number; write no unit.

// worked examples, Mean included
>  <compound>
CN[C@H](CC(C)C)C(=O)N[C@H]1C(=O)N[C@@H](CC(N)=O)C(=O)N[C@H]2C(=O)N[C@H]3C(=O)N[C@H](C(=O)N[C@H](C(=O)O)c4cc(O)cc(O)c4-c4cc3ccc4O)[C@H](O)c3ccc(c(Cl)c3)Oc3cc2cc(c3O[C@@H]2O[C@H](CO)[C@@H](O)[C@H](O)[C@H]2O[C@H]2C[C@](C)(N)[C@H](O)[C@H](C)O2)Oc2ccc(cc2Cl)[C@H]1O [Vancomycin, vancomycin, reference compound]

>  <assay.value>
1664.0

$$$$
>  <compound>
CNC(CC(C)C)C(=O)NC1C(=O)NC(CC(N)=O)C(=O)NC2C(=O)NC3C(=O)NC(C(=O)NC(C(=O)O)c4cc(O)cc(O)c4-c4cc3ccc4O)C(O)c3ccc(c(Cl)c3)Oc3cc2cc(c3OC2OC(CN)C(O)C(O)C2OC2CC(C)(NCc3ccc(OCc4cc(Cl)ccc4Cl)cc3)C(O)C(C)O2)Oc2ccc(cc2Cl)C1O (stereo not drawn)

>  <assay.value>
14

$$$$
>  <compound>
CNC(CC(C)C)C(=O)NC1C(=O)NC(CC(N)=O)C(=O)NC2C(=O)NC3C(=O)NC(C(=O)NC(C(=O)O)c4cc(O)cc(O)c4-c4cc3ccc4O)C(O)c3ccc(c(Cl)c3)Oc3cc2cc(c3OC2OC(CN)C(O)C(O)C2OC2CC(C)(NCc3ccc(OCc4ccc(Cl)cc4Cl)cc3)C(O)C(C)O2)Oc2ccc(cc2Cl)C1O (stereo not drawn)

>  <assay.value>
4.75

$$$$
>  <compound>
CNC(CC(C)C)C(=O)NC1C(=O)NC(CC(N)=O)C(=O)NC2C(=O)NC3C(=O)NC(C(=O)NC(C(=O)O)c4cc(O)cc(O)c4-c4cc3ccc4O)C(O)c3ccc(c(Cl)c3)Oc3cc2cc(c3OC2OC(CNCCO)C(O)C(O)C2OC2CC(C)(NCc3ccc(OCc4ccc(Cl)c(Cl)c4)cc3)C(O)C(C)O2)Oc2ccc(cc2Cl)C1O (stereo not drawn)

>  <assay.value>
4.4

$$$$
>  <compound>
CNC(CC(C)C)C(=O)NC1C(=O)NC(CC(N)=O)C(=O)NC2C(=O)NC3C(=O)NC(C(=O)NC(C(=O)O)c4cc(O)cc(O)c4-c4cc3ccc4O)C(O)c3ccc(c(Cl)c3)Oc3cc2cc(c3OC2OC(CNCC3CCNCC3)C(O)C(O)C2OC2CC(C)(NCc3ccc(OCc4ccc(Cl)c(Cl)c4)cc3)C(O)C(C)O2)Oc2ccc(cc2Cl)C1O (stereo not drawn)

>  <assay.value>
9.3

$$$$

Item CNC(CC(C)C)C(=O)NC1C(=O)NC(CC(N)=O)C(=O)NC2C(=O)NC3C(=O)NC(C(=O)NC(C(=O)O)c4cc(O)cc(O)c4-c4cc3ccc4O)C(O)c3ccc(c(Cl)c3)Oc3cc2cc(c3OC2OC(CNCCC#N)C(O)C(O)C2OC2CC(C)(NCc3ccc(OCc4ccc(Cl)c(Cl)c4)cc3)C(O)C(C)O2)Oc2ccc(cc2Cl)C1O (stereo not drawn) has what recorded Mean? 10.0
